Target: T1, His9-hMSR1 (human MSR1 extracellular domain) (Homo sapiens, UniProt P21757)
T1 construct: human MSR1 extracellular domain expressed with a N-terminal nonahistidine tag; His9 (nonahistidine) (N); purchased R&D Systems 2708-MS
T1 sequence (P21757 77-451 limits assumed): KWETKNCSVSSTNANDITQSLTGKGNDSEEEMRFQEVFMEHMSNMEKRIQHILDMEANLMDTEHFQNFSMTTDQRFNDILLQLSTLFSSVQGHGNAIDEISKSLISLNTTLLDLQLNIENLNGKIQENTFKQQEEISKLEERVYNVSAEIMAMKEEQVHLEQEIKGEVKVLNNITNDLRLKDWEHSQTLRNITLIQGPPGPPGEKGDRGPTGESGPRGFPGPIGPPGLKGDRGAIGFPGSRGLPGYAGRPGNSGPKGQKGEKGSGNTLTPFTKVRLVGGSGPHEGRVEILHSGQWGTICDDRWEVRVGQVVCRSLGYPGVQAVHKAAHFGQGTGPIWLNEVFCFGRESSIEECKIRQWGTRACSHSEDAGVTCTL
Experiment: Biacore surface plasmon resonance binding kinetics of anti-MSR1 mAbs, antibody-capture format
Settings: 37° C.; analyte His9-hMSR1; antibody-capture format; NB = no binding observed
Property: ka; scope: individual molecules
measurementName: ka (M⁻¹ s⁻¹)

molecule | measurementUnits | experimentalValue
H1H27747P-N297Q (antibody, V domains shown) VH: QVQLVESGGAVVQPGRSLRLSCAASGFTFSYYGMHWVRQAPGKGLEWVAVISYDGSKKYYADSVKGRFTISRDNSKNTLYLQMNSLRAEDTAVYYCAKDLTVDFYYGMDVWGQGTTVTVSS VL: DIQMTQSPSSVSASVGDRVTITCRASQGISSWLAWYQQKPGKAPKLLIYATSSLQSGAPSRFSGSGSGTDFTLTISSLQPEDFATYFCQQANSFPYTFGQGTKLEIKR | M⁻¹ s⁻¹ | 513000
H1H27754P-N297Q: one of "Twelve anti-MSR1 antibodies"; "made with an N297Q single point mutation in human Fcγ portion" (antibody, V domains shown) VH: EVQLVESGGGLVQPGGSLRLSCAASGFTFRTYAMTWVRQAPGKGLDWVSAITGDGGNTYYADSVKGRFTISRDNSKNTLYLQMNSLRAEDTAIYYCAKDQRFSFALYYFDYWGQGTLVTVSS VL: DIQMTQSPSSVSASVGDRVTITCRASQGISSWLAWYQQKPGNAPKLLIYAAFSLQSGVPSRFSGSGSGTDFTLTISSLQPEDFATYYCQQANNFPWTFGQGTKVEIKR | M⁻¹ s⁻¹ | 663000
